- EXPERIMENTAL TARGET: Menin (Homo sapiens, UniProt O00255)
- Sequence (O00255 whole entry): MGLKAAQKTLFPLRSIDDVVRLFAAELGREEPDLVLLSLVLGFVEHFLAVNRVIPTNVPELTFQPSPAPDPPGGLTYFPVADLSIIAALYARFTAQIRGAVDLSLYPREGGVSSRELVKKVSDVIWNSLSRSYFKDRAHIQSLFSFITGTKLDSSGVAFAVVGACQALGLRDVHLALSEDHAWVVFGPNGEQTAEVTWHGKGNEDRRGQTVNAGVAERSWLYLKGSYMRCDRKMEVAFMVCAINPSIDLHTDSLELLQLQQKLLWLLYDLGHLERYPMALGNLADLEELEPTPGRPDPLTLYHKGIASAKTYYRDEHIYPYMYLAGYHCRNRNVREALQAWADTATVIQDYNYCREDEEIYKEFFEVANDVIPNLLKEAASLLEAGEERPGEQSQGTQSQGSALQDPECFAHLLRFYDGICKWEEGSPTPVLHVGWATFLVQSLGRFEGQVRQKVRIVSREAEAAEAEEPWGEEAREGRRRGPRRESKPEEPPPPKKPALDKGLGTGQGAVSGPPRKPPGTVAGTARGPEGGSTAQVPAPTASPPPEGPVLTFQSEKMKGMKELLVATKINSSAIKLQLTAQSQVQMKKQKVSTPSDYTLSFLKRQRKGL
- ASSAY PROTOCOL: Inhibition of biotinylated MLL-1 derived biotinylated Btn-PEG2- PEG2-S-Nva-RWRFPARPGTT-Amide binding to recombinant full length N-terminal His-tagged menin (unknown origin) expressed in Escherichia coli incubated for 10 mins by TR-FRET assay
METRIC NAME: IC50 (µM)
One number for each entry, in µM.

[[record]]
molecule = "N#CCc1ccc(CN2CCC3(CCN(c4ncnc5sc(CC(F)(F)F)cc45)C3)C2)cc1 (centres undefined)"
experimental_target = "Menin (Homo sapiens, UniProt O00255)"
metric_name = "IC50"
unit_text = "µM"
data_value = 0.02

[[record]]
molecule = "NS(=O)(=O)Cc1ccc(CN2CCC3(CCN(c4ncnc5cc(CC(F)(F)F)sc45)C3)C2)cc1 (centres undefined)"
experimental_target = "Menin (Homo sapiens, UniProt O00255)"
metric_name = "IC50"
unit_text = "µM"
data_value = 0.01

[[record]]
molecule = "CN(CCO)c1ccc(CN2CCC3(CCN(c4ncnc5sc(CC(F)(F)F)cc45)C3)C2)cc1 (centres undefined)"
experimental_target = "Menin (Homo sapiens, UniProt O00255)"
metric_name = "IC50"
unit_text = "µM"
data_value = 0.01

[[record]]
molecule = "C=CC(=O)Nc1ccc(CN2CCC3(CCN(c4ncnc5sc(CC(F)(F)F)cc45)C3)C2)cc1 (centres undefined)"
experimental_target = "Menin (Homo sapiens, UniProt O00255)"
metric_name = "IC50"
unit_text = "µM"
data_value = 0.01

[[record]]
molecule = "CC(c1ccc(CN2CCC3(CCN(c4ncnc5sc(CC(F)(F)F)cc45)C3)C2)cc1)S(N)(=O)=O (centres undefined)"
experimental_target = "Menin (Homo sapiens, UniProt O00255)"
metric_name = "IC50"
unit_text = "µM"
data_value = 0.01

[[record]]
molecule = "FC(F)Cc1cc2c(N3CCC4(CCN(Cc5ccc(N6CCOCC6)cc5)C4)C3)ncnc2s1 (centres undefined)"
experimental_target = "Menin (Homo sapiens, UniProt O00255)"
metric_name = "IC50"
unit_text = "µM"
data_value = 0.01


Could you report IC50 for every entry in the following list?
1. NS(=O)(=O)Cc1ccc(CN2CCC3(CCN(c4ncnc5sc(CC(F)(F)F)cc45)C3)C2)cc1 (centres undefined)
2. O=S(=O)(Cc1ccc(CN2CCC3(CCN(c4ncnc5sc(CC(F)(F)F)cc45)C3)C2)cc1)NCCO (centres undefined)
3. CC(C)(C#N)c1ccc(CN2CCC3(CCN(c4ncnc5sc(CC(F)(F)F)cc45)C3)C2)cc1 (centres undefined)

// result
[0.004, 0.01, 0.02]
